Please respond with reported pIC50 for every item in the list.
Test system: MRC5
Assay: Cytotoxicity against human MRC5 cells assessed as reduction in cell viability after 48 hrs by MTT assay
Type: cell-based
Conditions: MRC5, 48 h
Reminder that pIC50 is minus the log10 of a molar concentration.

Which pIC50 reading was recorded for the compound CN(C)CCCN1C(=O)c2ccc3c4c(c(NCCCn5cc(CCO[C@@H]6O[C@H](CO)[C@@H](O)[C@H](O)[C@H]6O)nn5)cc(c24)C1=O)C(=O)N(CCCN(C)C)C3=O ?
6.35

Return reported pIC50; argument: CN(C)CCCc1cc2c3c(c(NCCCn4cc(CO[C@H]5O[C@H](CO)[C@@H](O)[C@H](O)[C@@H]5O)nn4)cc4c3c1C(=O)N(CCCN(C)C)C4=O)C(=O)N(CCCN(C)C)C2=O
5.18

Looking for the measured pIC50 of CN(C)CCCN1C(=O)c2ccc3c4c(c(NCCCn5cc(COCCOCCOCCO[C@@H]6O[C@H](CO)[C@@H](O[C@@H]7O[C@H](CO)[C@H](O)[C@H](O)[C@H]7O)[C@H](O)[C@H]6O)nn5)cc(c24)C1=O)C(=O)N(CCCN(C)C)C3=O , can you help?
6.62

GET /values?readout=pIC50&item= CN(C)CCCN1C(=O)c2ccc3c4c(c(NCCCn5cc(COCCOCCOCCO[C@@H]6O[C@H](CO)[C@@H](O)[C@H](O)[C@H]6O)nn5)cc(c24)C1=O)C(=O)N(CCCN(C)C)C3=O
6.14

What value of measured pIC50 is listed for CN(C)CCCN1C(=O)c2ccc3c4c(c(NCCCn5cc(CCO[C@@H]6O[C@H](CO)[C@@H](O[C@H]7O[C@H](CO)[C@@H](O)[C@H](O)[C@H]7O)[C@H](O)[C@H]6O)nn5)cc(c24)C1=O)C(=O)N(CCCN(C)C)C3=O ?
6.66

Consider the compound shown here: CN(C)CCCN1C(=O)c2ccc3c4c(c(NCCCn5cc(COCCOCCOCCO[C@H]6O[C@H](CO)[C@@H](O)[C@H](O)[C@@H]6O)nn5)cc(c24)C1=O)C(=O)N(CCCN(C)C)C3=O What is its recorded pIC50?
5.87

Recorded pIC50 for CN(C)CCCN1C(=O)c2ccc3c4c(c(NCCCn5cc(COCCOCCOCCO[C@@H]6O[C@H](CO)[C@@H](O[C@H]7O[C@H](CO)[C@@H](O)[C@H](O)[C@H]7O)[C@H](O)[C@H]6O)nn5)cc(c24)C1=O)C(=O)N(CCCN(C)C)C3=O , please?
5.48

# input compound: CN(C)CCCc1cc2c3c(c(NCCCn4cc(CO[C@@H]5O[C@H](CO)[C@@H](O[C@@H]6O[C@H](CO)[C@H](O)[C@H](O)[C@H]6O)[C@H](O)[C@H]5O)nn4)cc4c3c1C(=O)N(CCCN(C)C)C4=O)C(=O)N(CCCN(C)C)C2=O ; wanted: its pIC50
5.18

// pIC50 lookup, key: CN(C)CCCN1C(=O)c2ccc3c4c(c(NCCCn5cc(CCO[C@H]6O[C@H](CO)[C@@H](O)[C@H](O)[C@@H]6O)nn5)cc(c24)C1=O)C(=O)N(CCCN(C)C)C3=O
6.77

So what's the measured pIC50 for this one? CN(C)CCCc1cc2c3c(c(NCCCn4cc(CCO[C@@H]5O[C@H](CO)[C@@H](O[C@H]6O[C@H](CO)[C@@H](O)[C@H](O)[C@H]6O)[C@H](O)[C@H]5O)nn4)cc4c3c1C(=O)N(CCCN(C)C)C4=O)C(=O)N(CCCN(C)C)C2=O
4.95

Value lookup for pIC50; key = CN(C)CCCc1cc2c3c(c(NCCCn4cc(CO[C@@H]5O[C@H](CO)[C@@H](O)[C@H](O)[C@H]5O)nn4)cc4c3c1C(=O)N(CCCN(C)C)C4=O)C(=O)N(CCCN(C)C)C2=O
6.07

// lookup pIC50 for CN(C)CCCc1cc2c3c(c(NCCCn4cc(COCCOCCOCCO[C@@H]5O[C@H](CO)[C@@H](O)[C@H](O)[C@H]5O)nn4)cc4c3c1C(=O)N(CCCN(C)C)C4=O)C(=O)N(CCCN(C)C)C2=O
5.05

Param item = CN(C)CCCN1C(=O)c2ccc3c4c(c(NCCCn5cc(CO[C@@H]6O[C@H](CO)[C@@H](O)[C@H](O)[C@H]6O)nn5)cc(c24)C1=O)C(=O)N(CCCN(C)C)C3=O ; retrieve measured pIC50.
6.59

Which pIC50 value belongs to CN(C)CCCc1cc2c3c(c(NCCCn4cc(CCO[C@@H]5O[C@H](CO)[C@@H](O)[C@H](O)[C@H]5O)nn4)cc4c3c1C(=O)N(CCCN(C)C)C4=O)C(=O)N(CCCN(C)C)C2=O ?
5.14

What pIC50 value was documented for this compound, CN(C)CCCc1cc2c3c(c(NCCCn4cc(CO[C@@H]5O[C@H](CO)[C@@H](O[C@H]6O[C@H](CO)[C@@H](O)[C@H](O)[C@H]6O)[C@H](O)[C@H]5O)nn4)cc4c3c1C(=O)N(CCCN(C)C)C4=O)C(=O)N(CCCN(C)C)C2=O ?
5.02

# input compound: CN(C)CCCN1C(=O)c2ccc3c4c(c(NCCCn5cc(CCO[C@@H]6O[C@H](CO)[C@@H](O[C@@H]7O[C@H](CO)[C@H](O)[C@H](O)[C@H]7O)[C@H](O)[C@H]6O)nn5)cc(c24)C1=O)C(=O)N(CCCN(C)C)C3=O ; wanted: its pIC50
5.93

What measured pIC50 goes with CN(C)CCCc1cc2c3c(c(NCCCn4cc(CCO[C@H]5O[C@H](CO)[C@@H](O)[C@H](O)[C@@H]5O)nn4)cc4c3c1C(=O)N(CCCN(C)C)C4=O)C(=O)N(CCCN(C)C)C2=O ?
5.29

###

Kindly supply the reported IC50 values for the records listed here.
System: Leishmania major
Experiment: Leishmaniacidal activity against Leishmania major MHOM/IL/80/Friedlin promastigotes after 72 hrs by MTT assay
Format: functional, organism-based
Hi, when you answer, please include the unit after the number. Thanks!

Query: IC50; subject: CN(C)CCCN1C(=O)c2ccc3c4c(c(NCCCn5cc(COCCOCCOCCO[C@@H]6O[C@H](CO)[C@@H](O)[C@H](O)[C@H]6O)nn5)cc(c24)C1=O)C(=O)N(CCCN(C)C)C3=O
0.48 µM

Value lookup for IC50; key = CN(C)CCCc1cc2c3c(c(NCCCn4cc(COCCOCCOCCO[C@@H]5O[C@H](CO)[C@@H](O[C@@H]6O[C@H](CO)[C@H](O)[C@H](O)[C@H]6O)[C@H](O)[C@H]5O)nn4)cc4c3c1C(=O)N(CCCN(C)C)C4=O)C(=O)N(CCCN(C)C)C2=O
8.98 µM

What measured IC50 goes with CN(C)CCCN1C(=O)c2ccc3c4c(c(NCCCn5cc(CO[C@@H]6O[C@H](CO)[C@@H](O[C@H]7O[C@H](CO)[C@@H](O)[C@H](O)[C@H]7O)[C@H](O)[C@H]6O)nn5)cc(c24)C1=O)C(=O)N(CCCN(C)C)C3=O ?
6.79 µM

###

Tested on: Leishmania major
Experiment: Leishmaniacidal activity against Leishmania major MHOM/IL/80/Friedlin promastigotes after 72 hrs by MTT assay
Type: functional, organism-based
metric: pIC50
# log scale: pIC50 equals minus log10 of the concentration in mol/L

For CN(C)CCCN1C(=O)c2ccc3c4c(c(NCCCn5cc(CCO[C@H]6O[C@H](CO)[C@@H](O)[C@H](O)[C@@H]6O)nn5)cc(c24)C1=O)C(=O)N(CCCN(C)C)C3=O , what is its reported pIC50?
5.55

// returns reported pIC50 for input CN(C)CCCc1cc2c3c(c(NCCCn4cc(CO[C@H]5O[C@H](CO)[C@@H](O)[C@H](O)[C@@H]5O)nn4)cc4c3c1C(=O)N(CCCN(C)C)C4=O)C(=O)N(CCCN(C)C)C2=O
6.74

Quick check: pIC50 of CN(C)CCCc1cc2c3c(c(NCCCn4cc(CCO[C@@H]5O[C@H](CO)[C@@H](O[C@H]6O[C@H](CO)[C@@H](O)[C@H](O)[C@H]6O)[C@H](O)[C@H]5O)nn4)cc4c3c1C(=O)N(CCCN(C)C)C4=O)C(=O)N(CCCN(C)C)C2=O ?
5.54

// lookup pIC50 for CN(C)CCCc1cc2c3c(c(NCCCn4cc(COCCOCCOCCO[C@@H]5O[C@H](CO)[C@@H](O)[C@H](O)[C@H]5O)nn4)cc4c3c1C(=O)N(CCCN(C)C)C4=O)C(=O)N(CCCN(C)C)C2=O
6.57

Given CN(C)CCCN1C(=O)c2ccc3c4c(c(NCCCn5cc(COCCOCCOCCO[C@@H]6O[C@H](CO)[C@@H](O[C@@H]7O[C@H](CO)[C@H](O)[C@H](O)[C@H]7O)[C@H](O)[C@H]6O)nn5)cc(c24)C1=O)C(=O)N(CCCN(C)C)C3=O , state its recorded pIC50.
6.77
